# Test system: 953936-095-R-J2-PDC spheroids with HUVEC/MSC, viability;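 also: spheroids exposed to compounds for seven days before read-out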
# procedureText: Anticancer human tumor 953936-095-R-J2-PDC patient-derived cervical squamous cell carcinoma cell line growth inhibition [PI3K]
# studyConditions: curve of first compound; second compound 10 µM
pIC50: −log10 of the molar value.

compound	testSystem	pIC50
CC(C)n1nc(-c2ccc3oc(N)nc3c2)c2c(N)ncnc21 + Cc1nc(NC(=O)N2CCCC2C(N)=O)sc1-c1ccnc(C(C)(C)C(F)(F)F)c1	953936-095-R-J2-PDC spheroids with HUVEC/MSC, viability	> 9.50
CCCS(=O)(=O)Nc1ccc(F)c(C(=O)c2c[nH]c3ncc(-c4ccc(Cl)cc4)cc23)c1F + Cc1nc(NC(=O)N2CCCC2C(N)=O)sc1-c1ccnc(C(C)(C)C(F)(F)F)c1	953936-095-R-J2-PDC spheroids with HUVEC/MSC, viability	> 7.50
C[C@@H](NC(=O)c1ncnc(N)c1Cl)c1ncc(C(=O)Nc2cc(C(F)(F)F)c(Cl)cn2)s1 + Cc1nc(NC(=O)N2CCCC2C(N)=O)sc1-c1ccnc(C(C)(C)C(F)(F)F)c1	953936-095-R-J2-PDC spheroids with HUVEC/MSC, viability	> 7.50

Data credit: PubChem BioAssay AID1963971
